# experimental details: basal HepG2 mitochondrial membrane potential changes, profiling panel, cell-based, JC-1 fluorescence, 24 h, 100 nL compound (AID 1167); note: test concentration not given here
# condition label: higher = more signal
Would you please tag the item TRUE when its z-score is 0.5 or above, and FALSE when it is below?

Example cases with answers are listed next.
COc1ccc([Si](C)(C)[C@@H]2[C@@H](CCO)O[C@]3(C(=O)N(Cc4ccc(N(C=O)c5ccccc5)cc4)c4ccccc43)[C@H]2C)cc1
FALSE
O=C1N[C@@H](Cc2ccccc2)C(=O)N2[C@@H]1C[C@@H](C(=O)O)[C@H]2c1cccc(OCCO)c1
TRUE
COc1ccc(CCNC(=O)[C@@]2(Sc3ccc(C)cc3)CC(=O)N(C3Cc4ccccc4C3)[C@@H]2c2ccc(CO)cc2I)cc1
FALSE
O=C1C2C=CC(C(O)CCc3ccccc3)N(Nc3ccccc3F)C2C(=O)N1c1ccccc1 (configuration not stated)
FALSE
C[C@@]1([C@@H](NC(=O)c2ccc(-c3ccccc3)cc2)c2ccc(Cl)cc2)C[C@H]1C1CCCCC1
FALSE

Asked: In plain terms: is recorded z-score at least 0.5 for "COCCOC(=O)N1C(=O)[C@@]2(c3cc(C#Cc4ccc(OC)cc4)ccc31)[C@H](c1ccc(OCCO)cc1)N1[C@H](c3ccccc3)[C@H](c3ccccc3)OC(=O)[C@H]1[C@@H]2C(=O)N1CCN(c2ncccn2)CC1" ?
Given back: TRUE

Asked: Entry COc1cc(Br)cc(C(O)C2C=CC3C(=O)N(C)C(=O)C3N2N2CCCCC2)c1OC (configuration not stated) : is its z-score no less than 0.5?
Given back: FALSE

Asked: Determine whether measured z-score meets or exceeds 0.5 for "C=CCOC(=O)[C@H]1[C@@H]2C(=O)O[C@@H](c3ccccc3)[C@@H](c3ccccc3)N2[C@@H](c2ccc(OCCOC(=O)[C@H]3C[C@H]4C(=O)N[C@@H](CCCCNC(C)=O)C(=O)N4[C@H]3c3cccc(OCCO)c3)cc2)[C@]12C(=O)Nc1ccccc12"
Given back: FALSE
